# Tested on: AncSZ;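 note: 11-residue human phosphosite peptides and single-mutation variants displayed on the E. coli surface, counted by deep sequencing, each peptide's frequency after selection divided by its frequency in the unselected input library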;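 note: frequency after pTyr selection over input frequency; kinase dosed for 20-30% of maximal phosphorylation in three min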
# experiment: phosphorylation enrichment, bacterial display (enrichment ratio); higher = better substrate or ligand; peptides without Tyr show the background
Give measured phosphorylation enrichment for each item. Keep answers brief.

The cases that follow already have their phosphorylation enrichment on record.
[[record]]
sequence_input = "PPAPRYHHLAV [LZTR1_Y119_S122L]"
observed_property = "phosphorylation enrichment"
result = 0.868

[[record]]
sequence_input = "FVPAAYVKKLD [SPTAN1_Y1020]"
observed_property = "phosphorylation enrichment"
result = 0.791

[[record]]
sequence_input = "FAFQLYDLDPD [CHP2_Y123_R127P_YF]"
observed_property = "phosphorylation enrichment"
result = 1.26

[[record]]
sequence_input = "KSDVMYTDWKK [ORM1_Y175_V174M]"
observed_property = "phosphorylation enrichment"
result = 0.738

[[record]]
sequence_input = "TNGFTYGSSHQ [MANEA_Y331]"
observed_property = "phosphorylation enrichment"
result = 0.566


Hi team, please reply with phosphorylation enrichment for each item in this list.
1. STLEVYRCHPP [IL21R_Y317_S318R]
2. LENSTYQYIRV [CRB1_Y760]
3. EQQNMYRLKVL [ABCC6_Y372]

Completion:
1.11
2.11
0.861

Hi team, please reply with phosphorylation enrichment for each item in this list.
1. VIERSYTSADG [DHCR7_Y382_C380R]
2. GMSQAYSSSQR [DES_Y5]
3. KNKNRYKNILP [PTPN11_Y279]

Completion:
1. 0.571
2. 0.466
3. 0.78
